Measured protein stability index accompanies every entry in the list below.
B1: DVL3 (parent)
chain: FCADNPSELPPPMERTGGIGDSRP

variants of: B1; experiment: protein stability index of a GFP-peptide fusion (GPS, HEK-293T) (PSI 1-6); higher = more stable; details: c terminus: a fixed tail appended;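 note: lentivirally expressed fusions sorted by FACS into six bins by GFP to DsRed ratio, PSI derived from sequencing read proportions per bin multiplied by bin number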
endpoint name: protein stability index

>>> print(df.to_string())
   variant_descriptor            endpoint_name  numeric_result
0                G17H  protein stability index            4.69
1                 N5M  protein stability index            4.57
2                R23L  protein stability index            3.74
3                P24C  protein stability index            4.39
4                 A3K  protein stability index            4.34
5                P24T  protein stability index            4.12
6                 N5S  protein stability index            4.78
7                 C2R  protein stability index            4.58
8                R15Q  protein stability index            4.37
9                 F1S  protein stability index            4.94
